Give TGI for every item shown.
Tested on: HOP-92 NSCLC
Assay: NCI tumour cell line growth inhibition, 48 h

Name the recorded TGI for `NCCCCN(CCCN)Cc1ccccc1` .
> 100 µM

Name the recorded TGI for CCCNC(C#N)c1ccc(OCCCCCCCCCCOc2ccc(C(C#N)NCCC)cc2)cc1 (stereo unspecified) .
66.1 µM

Name the recorded TGI for `CCOC(=O)c1ccc(Nc2sc(C(=O)c3cccc([N+](=O)[O-])c3)c(N)c2C#N)cc1` .
28.1 µM

Name the recorded TGI for C[C@H]1CCCCC[C@@H]2CC(=O)CC2C(=O)CCC(=O)O1 (stereo partly specified) .
> 100 µM

Name the recorded TGI for `COc1ccc(N2C(=O)c3cccnc3S2(=O)=O)cc1` .
> 100 µM

Name the recorded TGI for `CC(=O)Nc1ccccc1-c1cnc2ccccc2n1` .
> 100 µM

Name the recorded TGI for `O=C(O)CCCSc1nc2ccccc2s1` .
> 100 µM

Name the recorded TGI for `CN(C)CCCNc1ccnc2cc([N+](=O)[O-])ccc12` .
8.13 µM

Name the recorded TGI for `O=c1cc(O)c2ccccc2o1` .
> 100 µM

Name the recorded TGI for Cc1cc2c(cc1C)C(=O)C1(C2)Cc2c(ccc(C)c2C)C1=O (stereo unspecified) .
> 100 µM

Name the recorded TGI for O=C1/C(=C/c2ccccc2)N=C(c2ccccc2)N1C1Nc2cc3c(cc2S1)NC(N1C(=O)/C(=C/c2ccccc2)N=C1c1ccccc1)S3 (stereo unspecified) .
8.27 µM

Name the recorded TGI for `CC1=C(C(=O)CC(=O)C(=O)Nc2ccccc2)Sc2ccccc2N1` .
> 100 µM

Name the recorded TGI for `N#Cc1c(C#N)c(-c2ccco2)n(-c2ccccc2)c1N` .
> 100 µM

Name the recorded TGI for `COc1cc2ccnc(-c3c4ccccc4c(N)c4c(OC)c(OC)ccc34)c2cc1OC` .
9.35 µM

Name the recorded TGI for `CN(C)/C=C(\C(=O)c1ccccc1)n1nc(-c2ccccc2)cc1-c1ccccc1` .
> 10 µM

Name the recorded TGI for `COc1ccc(-c2cc(-c3cn[nH]c3-c3ccccn3)ccn2)cc1` .
> 25 µM

Name the recorded TGI for NCCCC1NC(=O)/C(=C(O)/C=C/C2CCC[C@@H]2CC2SCCS2)C1=O (stereo partly specified) .
99.8 µM

Name the recorded TGI for `NC(=O)Nc1cc(O)ccc1N=Nc1ccc(S(=O)(=O)Nc2ccccn2)cc1` .
> 100 µM

Name the recorded TGI for `CN(C)c1nc(=NCc2cccs2)ss1` .
> 10 µM

Name the recorded TGI for Cc1ccccc1NC(=O)C1C(=O)N(c2ccccc2C)C(=O)/C1=N\N (stereo unspecified) .
> 100 µM

Name the recorded TGI for `c1ccc(-c2nnc(Nc3ccc4c(c3)OCCO4)o2)c(NCc2ccncc2)c1` .
6.87 µM
